target_entity: human ether-à-go-go-related gene (hERG) potassium channel (human, UniProt Q12809)
Sequence (Q12809 whole entry, looked up): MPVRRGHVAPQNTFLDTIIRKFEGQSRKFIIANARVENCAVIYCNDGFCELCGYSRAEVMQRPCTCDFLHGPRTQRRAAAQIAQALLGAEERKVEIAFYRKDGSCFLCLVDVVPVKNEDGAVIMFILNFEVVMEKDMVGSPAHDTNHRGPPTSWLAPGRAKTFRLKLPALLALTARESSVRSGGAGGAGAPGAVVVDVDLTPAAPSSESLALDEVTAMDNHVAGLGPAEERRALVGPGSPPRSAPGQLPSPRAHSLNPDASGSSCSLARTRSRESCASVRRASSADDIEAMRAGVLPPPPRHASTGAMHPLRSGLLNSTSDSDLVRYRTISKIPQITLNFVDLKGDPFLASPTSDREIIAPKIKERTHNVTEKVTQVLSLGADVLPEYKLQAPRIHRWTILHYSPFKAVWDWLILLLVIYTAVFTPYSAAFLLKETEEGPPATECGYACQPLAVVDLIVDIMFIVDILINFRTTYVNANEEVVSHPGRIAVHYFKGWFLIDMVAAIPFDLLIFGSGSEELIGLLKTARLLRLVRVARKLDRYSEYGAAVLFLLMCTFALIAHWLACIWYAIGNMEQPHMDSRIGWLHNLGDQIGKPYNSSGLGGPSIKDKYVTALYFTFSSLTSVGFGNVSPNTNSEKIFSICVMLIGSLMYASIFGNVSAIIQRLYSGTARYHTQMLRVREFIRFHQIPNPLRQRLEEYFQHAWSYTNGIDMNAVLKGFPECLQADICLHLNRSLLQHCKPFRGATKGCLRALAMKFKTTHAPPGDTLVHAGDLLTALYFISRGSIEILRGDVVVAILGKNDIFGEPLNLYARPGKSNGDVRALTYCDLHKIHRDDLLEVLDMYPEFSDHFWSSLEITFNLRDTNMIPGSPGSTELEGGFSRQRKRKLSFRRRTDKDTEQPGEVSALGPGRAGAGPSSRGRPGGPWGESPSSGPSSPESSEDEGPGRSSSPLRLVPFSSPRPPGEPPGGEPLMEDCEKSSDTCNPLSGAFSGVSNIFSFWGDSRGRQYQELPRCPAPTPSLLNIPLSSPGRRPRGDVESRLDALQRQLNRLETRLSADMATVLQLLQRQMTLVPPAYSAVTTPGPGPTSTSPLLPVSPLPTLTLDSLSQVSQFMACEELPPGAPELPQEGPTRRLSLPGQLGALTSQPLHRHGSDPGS
experimental_protocol: primary screen, population patch clamp on CHO cells stably expressing hERG; higher = less effect of the substance
Out of some 310,000 compounds screened, about 2,200 (0.71%) showed an effect of 50% or more. The effect is printed as a negative number. The full list was thinned out, with strong results kept by preference.
measured_attribute: hERG current change (%, negative = inhibition) at 1uM (%)
Give the value in % but do not write % after it.

INPUT: Kindly state the measured hERG current change (%, negative = inhibition) at 1uM obtained for Cc1cc(=O)[nH]c(N/N=C/c2cccc([N+](=O)[O-])c2)n1 with human ether-à-go-go-related gene (hERG) potassium channel (human, UniProt Q12809).
OUTPUT: 9.49

INPUT: Next up: CSc1nc2ccccc2cc1/C=C(\C#N)c1ccccc1
OUTPUT: 9.25

INPUT: One more compound: O=C(N/C(=C\c1ccc([N+](=O)[O-])cc1)C(=O)N1CCOCC1)c1cccc(Br)c1
OUTPUT: -79

INPUT: Try this compound next: CCCC1CC(C)(c2csc(Nc3ccc(OCC)cc3)n2)OC1=O (stereo not drawn)
OUTPUT: -0.99

INPUT: Now try COC(=O)C1C(=O)NCC1c1ccc(C)cc1 (stereo not drawn) .
OUTPUT: 11.9

INPUT: Can you check CCC(C)N(C(=O)COC(=O)c1nc2nc(C)cc(C)n2n1)C1CCS(=O)(=O)C1 (stereo not drawn) next?
OUTPUT: 21.2

INPUT: # repeat for COc1ccc(/C=C(/NC(=O)c2ccc(Br)cc2)C(=O)N2CCOCC2)cc1
OUTPUT: 7.06

INPUT: Next up: COc1ccc(/C=C(\NC(=O)c2ccc([N+](=O)[O-])cc2)C(=O)N2CCOCC2)cc1
OUTPUT: -54.9

INPUT: // same read-out, input: Cc1ccc(-c2cc(C(=O)Nc3cccnc3)c3ccccc3n2)s1
OUTPUT: 12.1

INPUT: Another compound to check: CC(=O)N(C)c1ccc(NC(=O)Nc2ccc(Cl)cc2)cc1
OUTPUT: 8.67

INPUT: Now consider CCC(c1nnnn1CCc1ccccc1)N1CCN(c2ccc(OC)cc2)CC1 (stereo not drawn) and answer again.
OUTPUT: 14.5

INPUT: Next up: COc1ccc(NC(=O)CCn2ccnc2)c(OC)c1
OUTPUT: 9.53

INPUT: Please do the same for Cl.O=[N+]([O-])c1ccccc1/C=N/NC1=NCCCCC1 as well.
OUTPUT: -0.325

INPUT: Similarly, COc1cc(Br)c(C(=O)c2nccc3cc(OC)c(OC)cc23)cc1OC ?
OUTPUT: 10.6

INPUT: COc1ccc(C(=O)N/C(=C\c2ccccc2)C(=O)N2CCOCC2)cc1 , same question.
OUTPUT: 9.79

INPUT: Same lookup for CCN(CC)CCCNC(CC(=O)Nc1cccc([N+](=O)[O-])c1)C(=O)O (stereo not drawn) , please.
OUTPUT: 3.62

INPUT: Ok, now O=C(N/C(=C\c1ccc(Cl)cc1)C(=O)N1CCOCC1)c1ccc([N+](=O)[O-])cc1
OUTPUT: -88.2

INPUT: Let us now turn to O=C(ONC1=NCCCCC1)c1cccc([N+](=O)[O-])c1
OUTPUT: 11.8

INPUT: Same lookup for O=[N+]([O-])c1cccc(/C=N/NC2=NCCCCC2)c1 , please.
OUTPUT: -70.9

INPUT: Now the compound O=C(O)c1ccc(N/N=C/c2ccncc2)cc1
OUTPUT: 10

INPUT: Let us now turn to CC1CCCC(C)N1CCCNC(=O)CN1C(=O)c2cccnc2Oc2ccc(Cl)cc21 (stereo not drawn)
OUTPUT: 6.15
